- TARGET OR TEST SYSTEM: T1, Human ACVR2A (human, UniProt P27037 20-135, limits assumed); further: test concentration or dose not given here
- T1 construct: also called activin receptor, type II A
- T1 sequence (P27037 20-135 limits assumed): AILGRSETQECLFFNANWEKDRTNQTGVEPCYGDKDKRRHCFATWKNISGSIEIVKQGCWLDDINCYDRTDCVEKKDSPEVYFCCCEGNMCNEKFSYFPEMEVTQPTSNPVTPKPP
- TEST NAME: ELISA
OBSERVABLE: optical density (OD)
Dear colleague, please return just the value in OD, with no unit written.

Data point: 374_A07 (antibody, V domains shown) VH: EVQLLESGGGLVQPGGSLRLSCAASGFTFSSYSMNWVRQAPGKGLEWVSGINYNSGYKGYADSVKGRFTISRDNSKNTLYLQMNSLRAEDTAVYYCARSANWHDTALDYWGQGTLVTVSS VL: DIQMTQSPSSLSASVGDRVTITCRASQSILSYVNWYQQKPGKAPKLLIYAVTSRASGVPSRFSGSGSGTDFTLTISSLQPEDFATYYCQQSYDLPLTFGGGTKVEIK ; optical density = 3.62

We now examine a further binder.
Data point: 374_E01 (antibody, V domains shown) VH: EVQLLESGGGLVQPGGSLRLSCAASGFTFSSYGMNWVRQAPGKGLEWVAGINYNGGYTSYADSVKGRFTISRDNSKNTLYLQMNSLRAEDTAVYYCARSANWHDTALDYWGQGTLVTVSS VL: DIQMTQSPSSLSASVGDRVTITCRASQSISSYVNWYQQKPGKAPKLLIYAATSRASGVPSRFSGSGSGTDFTLTISSLQPEDFATYYCQQSYSTPLTFGGGTKVEIK ; optical density = 3.24
